Where do these numbers come from? They come from paper PMC6777825.

Tgt: medaka T1r2a/T1r3LBD (Oryzias latipes, UniProt A0A173M094+A0A173M0G2)
Sequence (A0A173M094 entry or part of it): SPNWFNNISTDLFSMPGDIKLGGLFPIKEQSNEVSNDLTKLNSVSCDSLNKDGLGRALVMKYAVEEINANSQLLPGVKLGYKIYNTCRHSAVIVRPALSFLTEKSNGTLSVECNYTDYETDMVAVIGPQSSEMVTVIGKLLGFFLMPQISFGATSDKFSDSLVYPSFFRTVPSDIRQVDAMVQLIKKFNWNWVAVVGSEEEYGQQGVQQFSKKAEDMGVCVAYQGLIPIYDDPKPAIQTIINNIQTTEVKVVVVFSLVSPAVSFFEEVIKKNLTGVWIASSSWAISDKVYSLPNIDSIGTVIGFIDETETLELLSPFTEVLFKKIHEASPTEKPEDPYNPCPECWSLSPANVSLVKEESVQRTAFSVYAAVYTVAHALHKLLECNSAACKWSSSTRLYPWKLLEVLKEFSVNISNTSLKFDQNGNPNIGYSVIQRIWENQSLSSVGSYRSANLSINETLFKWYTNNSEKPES
Sequence (A0A173M0G2 entry or part of it): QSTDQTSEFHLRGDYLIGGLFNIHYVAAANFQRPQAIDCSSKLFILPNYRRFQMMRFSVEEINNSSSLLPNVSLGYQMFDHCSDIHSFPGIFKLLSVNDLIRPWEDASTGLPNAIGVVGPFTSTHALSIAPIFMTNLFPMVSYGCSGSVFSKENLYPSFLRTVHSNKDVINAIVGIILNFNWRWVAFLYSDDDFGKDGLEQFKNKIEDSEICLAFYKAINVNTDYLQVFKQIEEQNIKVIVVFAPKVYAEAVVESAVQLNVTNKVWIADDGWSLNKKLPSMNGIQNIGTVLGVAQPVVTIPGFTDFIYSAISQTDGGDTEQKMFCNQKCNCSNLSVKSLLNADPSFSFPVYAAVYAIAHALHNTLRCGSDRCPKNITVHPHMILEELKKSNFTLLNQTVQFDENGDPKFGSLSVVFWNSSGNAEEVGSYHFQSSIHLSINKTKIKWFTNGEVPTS
Test method notes: Differential scanning fluorimetry (DSF) thermal shift ligand-binding assay
Parameters: species or system O. latipes
Conditions used: pKd-app, log 1/Kd-app, converted from S1 Table values (10 mM; L-Ala 1 mM, L-Gln 0.1 mM)
Quantity: pKd
Friendly reminder that pKd comes from taking -log10 of the concentration in mol/L.

[ask] // returns reported pKd for input "N=C(N)NCCC[C@H](N)C(=O)O"
[reply] 3.56

----------
Tgt: medaka T1r2a/T1r3LBD (Oryzias latipes, UniProt A0A173M094+A0A173M0G2)
Test method notes: Differential scanning fluorimetry (DSF) thermal shift ligand-binding assay
Parameters: species or system O. latipes
Conditions used: log 1/Kd-app, converted from S1 Table values (10 mM; L-Ala 1 mM, L-Gln 0.1 mM)
Everything with pKd-app lower than 3 is no; everything else, including exactly 3, is yes.

Reference set (6 entries):
{"columns": ["Item smiles", "Tgt", "Category label"],
 "data": [
  ["NCC(=O)O", "medaka T1r2a/T1r3LBD (Oryzias latipes, UniProt A0A173M094+A0A173M0G2)", "no"],
  ["N[C@@H](Cc1ccccc1)C(=O)O", "medaka T1r2a/T1r3LBD (Oryzias latipes, UniProt A0A173M094+A0A173M0G2)", "no"],
  ["CC[C@H](C)[C@H](N)C(=O)O", "medaka T1r2a/T1r3LBD (Oryzias latipes, UniProt A0A173M094+A0A173M0G2)", "no"],
  ["NC(=O)C[C@H](N)C(=O)O", "medaka T1r2a/T1r3LBD (Oryzias latipes, UniProt A0A173M094+A0A173M0G2)", "no"],
  ["CSCC[C@H](N)C(=O)O", "medaka T1r2a/T1r3LBD (Oryzias latipes, UniProt A0A173M094+A0A173M0G2)", "yes"],
  ["N[C@@H](Cc1c[nH]cn1)C(=O)O", "medaka T1r2a/T1r3LBD (Oryzias latipes, UniProt A0A173M094+A0A173M0G2)", "no"]
]}

Now take the following compound into account.
[ask] Decide: pKd-app of "CC(C)[C@H](N)C(=O)O" >= 3?
[reply] yes
